Values were extracted from patent US20230132386A9.

experiment: metabolic stability assay using liver microsomes; format: in vitro ADME; details: human liver microsomes 0.4 mg/ml, 1 μM, NRS, 37° C.
ENDPOINT NAME: Human Liver Microsomes % remaining @30 min (%)

>>> meas_value("CC[C@H](C)[C@@H](C(=O)N[C@H]1CCc2cccc3c2N(C1=O)[C@H](C(=O)NCc1c[nH]nn1)C3)N(C)C(=O)CC(N)=O (single isomer, unassigned)")
83.6
>>> meas_value("CC[C@H](C)[C@@H](C(=O)N[C@H]1CCc2cccc3c2N(C1=O)[C@H](C(=O)NCc1c[nH]nn1)C3)N(CCOCCF)C(=O)Cc1nc2ccccc2o1 (single isomer, unassigned)")
0.8
>>> meas_value("CC[C@H](C)[C@@H](C(=O)N[C@H]1CCc2cccc3c2N(C1=O)[C@H](C(=O)NCc1c[nH]nn1)C3)N(C)C(=O)Cn1ccnc1 (single isomer, unassigned)")
55.4

###

target: Granzyme B (human lymphocytes) (Homo sapiens)
Sequence (P10144 21-247): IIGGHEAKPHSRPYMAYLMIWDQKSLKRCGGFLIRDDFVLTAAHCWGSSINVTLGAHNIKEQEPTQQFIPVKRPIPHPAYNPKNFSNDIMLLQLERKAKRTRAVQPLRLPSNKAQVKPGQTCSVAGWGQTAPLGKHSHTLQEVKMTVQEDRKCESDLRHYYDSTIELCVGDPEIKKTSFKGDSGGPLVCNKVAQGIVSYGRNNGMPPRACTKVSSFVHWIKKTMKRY
pIC50: −log10 of the molar value.
ENDPOINT NAME: pIC50

>>> meas_value("CC[C@H](C)[C@@H](C(=O)N[C@H]1CCc2cccc3c2N(C1=O)[C@H](C(=O)NCc1c[nH]nn1)C3)N(CCOCCF)C(=O)Cc1nc2ccccc2o1 (single isomer, unassigned)")
"6.00 to 6.52"
>>> meas_value("CC[C@H](C)[C@@H](C(=O)N[C@H]1CCc2cccc3c2N(C1=O)[C@H](C(=O)NCc1c[nH]nn1)C3)N(C(=O)COCCF)C(C)C (single isomer, unassigned)")
"5.30 to 6.00"
>>> meas_value("CC[C@H](C)[C@@H](C(=O)N[C@H]1CCc2cccc3c2N(C1=O)[C@H](C(=O)NCc1c[nH]nn1)C3)N(C)C(=O)Cn1ccnc1 (single isomer, unassigned)")
"6.00 to 6.52"
>>> meas_value("CC[C@H](C)[C@@H](C(=O)N[C@H]1CCc2cccc3c2N(C1=O)[C@H](C(=O)NCc1c[nH]nn1)C3)N(C)C(=O)CC(=O)NC (single isomer, unassigned)")
"6.00 to 6.52"
>>> meas_value("CC[C@H](C)[C@@H](C(=O)N[C@H]1CCc2cccc3c2N(C1=O)[C@H](C(=O)NCc1c[nH]nn1)C3)N(CCC(=O)O)C(=O)COCCF (single isomer, unassigned)")
"6.00 to 6.52"
>>> meas_value("CC[C@H](C)[C@@H](C(=O)N[C@H]1CCc2cccc3c2N(C1=O)[C@H](C(=O)NCc1c[nH]nn1)C3)N(CCOCCF)C(C)=O (single isomer, unassigned)")
"6.00 to 6.52"
>>> meas_value("CC[C@H](C)[C@@H](C(=O)N[C@H]1CCc2cccc3c2N(C1=O)[C@H](C(=O)NCc1c[nH]nn1)C3)N(CCc1csc2ccccc12)C(C)=O (single isomer, unassigned)")
"< 5.30"
>>> meas_value("CC[C@H](C)[C@@H](C(=O)N[C@H]1CCc2cccc3c2N(C1=O)[C@H](C(=O)NCc1c[nH]nn1)C3)N(C)C(=O)CC(=O)O (single isomer, unassigned)")
"6.00 to 6.52"
>>> meas_value("CC[C@H](C)[C@@H](C(=O)N[C@H]1CCc2cccc3c2N(C1=O)[C@H](C(=O)NCc1c[nH]nn1)C3)N(C)C(=O)CC(=O)N(C)C (single isomer, unassigned)")
"6.00 to 6.52"
>>> meas_value("CC[C@H](C)[C@@H](C(=O)N[C@H]1CCc2cccc3c2N(C1=O)[C@H](C(=O)NCc1c[nH]nn1)C3)N(CC)C(=O)COCCF (single isomer, unassigned)")
"6.00 to 6.52"
